# Tested on: E. coli ATCC 25922
# assay: MIC, NCCLS broth microdilution
# Format: cell-based, Escherichia coli
# measurement_setup: G = E. coli ATCC 25922
measurement_type: Minimum Inhibitory Concentration (MIC)

Task item: Any idea what its Minimum Inhibitory Concentration (MIC) is? The molecule is Cn1cc(NC(=O)c2cc3ccccc3cn2)cc1C(=O)Nc1ccc(C(=O)Nc2cn(C)c(C(=O)NCCNC(CO)(CO)CO)n2)cc1 [Compound A-49]
Reply: >32 µg/mL

Task item: Any idea what its Minimum Inhibitory Concentration (MIC) is? The molecule is CCOC(=O)C1CCN(CCNC(=O)c2nc(NC(=O)c3ccc(NC(=O)c4cc(NC(=O)c5cc6ccccc6cn5)cn4C)cc3)cn2C)CC1 [Compound A-48]
Reply: >32 µg/mL

# input for lookup
Task item: Any idea what its Minimum Inhibitory Concentration (MIC) is? The molecule is CCN1CCN(CCNC(=O)c2nc(NC(=O)c3ccc(NC(=O)c4cc(NC(=O)c5cc6ccccc6cn5)cn4C)cc3)cn2C)CC1 [Compound A-13]
Reply: >32 µg/mL
